Assign inhibition at 1 µM to each entry below.
test system: HIV-1 strain 92HT599; assay: Antiviral activity: p24 estimation in MT2 cells infected with HIV-1 strain 92HT599; type: cell-based; conditions: Human immunodeficiency virus 1, 1000 nM, HIV-1 92HT599, p24, ~96 hours
# output: bare number, implied unit %

Lookup result for CC(C)(CC(=O)O[C@H]1CC[C@]2(C)[C@H]3CC[C@@H]4[C@H]5[C@H](C6(C)CC6)CC[C@]5(C(=O)N5CCC[C@H]5c5ncc(-c6ccccc6)[nH]5)CC[C@@]4(C)[C@]3(C)CC[C@H]2C1(C)C)C(=O)O ; measured inhibition at 1 µM: 100

Lookup result for CC1(C)C(C(=O)O)CC1C(=O)O[C@H]1CC[C@]2(C)[C@H]3CC[C@@H]4[C@H]5[C@H](C6(C)CC6)CC[C@]5(C(=O)N5CCC[C@H]5c5ncc(-c6cccnc6)[nH]5)CC[C@@]4(C)[C@]3(C)CC[C@H]2C1(C)C (stereo partly shown) ; measured inhibition at 1 µM: 100

Lookup result for C=C(C)[C@@H]1CC[C@]2(C(=O)N3CCCC3c3ncc(-c4ccc(C#N)cc4)[nH]3)CC[C@]3(C)[C@H](CC[C@@H]4[C@@]5(C)CC[C@H](OC(=O)[C@H]6C[C@@H](C(=O)O)C6(C)C)C(C)(C)[C@@H]5CC[C@]43C)[C@@H]12 (stereo partly shown) ; measured inhibition at 1 µM: 100

Lookup result for C=C(C)[C@@H]1CC[C@]2(C(=O)N3CCC[C@H]3c3ncc(-c4ccccc4)[nH]3)CC[C@]3(C)[C@H](CC[C@@H]4[C@@]5(C)CC[C@H](OC(=O)CC(C)(C)CC(=O)O)C(C)(C)[C@@H]5CC[C@]43C)[C@@H]12 ; measured inhibition at 1 µM: 98

Data origin, for the record: patent US9637516B2
